Hello, the source for this data is patent USRE47150, in case you need it.

- measuredOn: recombinant TFPI of the FXa restoring assay (human, mouse or rat; not specified for Tables 9 and 10)
- Sequence (P10646 29-304): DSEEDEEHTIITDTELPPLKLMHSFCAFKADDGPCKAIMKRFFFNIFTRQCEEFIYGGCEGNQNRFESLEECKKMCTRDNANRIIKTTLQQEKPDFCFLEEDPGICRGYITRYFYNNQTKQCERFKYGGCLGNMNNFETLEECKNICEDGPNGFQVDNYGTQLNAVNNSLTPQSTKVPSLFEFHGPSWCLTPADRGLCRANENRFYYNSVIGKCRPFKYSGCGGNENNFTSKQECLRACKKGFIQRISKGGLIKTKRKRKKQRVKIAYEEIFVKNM
- experiment: cell-based or functional assay
metric: Improvement vs parental, FXa restoring assay (fold)
# value in fold; strip the unit string

Improvement vs parental, FXa restoring assay lookup needed for 2A8 HC_S35D (Fab, V domains shown, also called 2A8-4) VH: QVQLVESGGGLVQPGGSLRLSCAASGFTFRSYGMDWVRQAPGKGLEWVSSIRGSSSSTYYADSVKGRFTISRDNSKNTLYLQMNSLRAEDTAVYYCARKYRYWFDYWGQGTLVTVSS VL: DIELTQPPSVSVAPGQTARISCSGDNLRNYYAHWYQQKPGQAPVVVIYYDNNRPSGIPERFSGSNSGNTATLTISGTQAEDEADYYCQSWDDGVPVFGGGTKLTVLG , thanks.
1.1

Next:
Would you mind telling me what Improvement vs parental, FXa restoring assay value was observed for 2A8 LC_Y48F (Fab, V domains shown, also called 2A8-14) VH: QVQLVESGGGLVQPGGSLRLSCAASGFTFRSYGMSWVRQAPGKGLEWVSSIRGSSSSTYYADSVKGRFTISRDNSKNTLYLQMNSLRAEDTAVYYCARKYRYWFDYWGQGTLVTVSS VL: DIELTQPPSVSVAPGQTARISCSGDNLRNYYAHWYQQKPGQAPVVVIFYDNNRPSGIPERFSGSNSGNTATLTISGTQAEDEADYYCQSWDDGVPVFGGGTKLTVLG ?
1.9

Returns the measured Improvement vs parental, FXa restoring assay for the input binder. Input: 2A8 HC_K99V (Fab, V domains shown, also called 2A8-10) VH: QVQLVESGGGLVQPGGSLRLSCAASGFTFRSYGMSWVRQAPGKGLEWVSSIRGSSSSTYYADSVKGRFTISRDNSKNTLYLQMNSLRAEDTAVYYCARVYRYWFDYWGQGTLVTVSS VL: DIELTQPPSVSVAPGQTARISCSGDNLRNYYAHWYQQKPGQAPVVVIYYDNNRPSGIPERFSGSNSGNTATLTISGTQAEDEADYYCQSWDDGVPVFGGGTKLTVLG
1.6
